Values from PubChem BioAssay (EPA / NIEHS)

experiment: CCTE_Padilla_ZF_Score.General: CCTE's 144 Hour Post-fertilization zebrafish Assay Score for General Malformation, Padilla Lab (AID 2284411)
Active and inactive are the calls of the source. How the source made its calls: active means hit-call score of the fitted dose curve at least 0.9, where 1 is the maximum; inactive means score below 0.9.
Give one outcome, nothing more. List: 1.0 = active, 0.0 = inactive

# outcome recorded in this test, key = O=C(O)C(F)(F)C(F)(F)C(F)(F)C(F)(F)C(F)(F)C(F)(F)F
0.0

# outcome recorded in this test, key = NC(=S)Nc1ccccc1
0.0

# outcome recorded in this test, key = CCOP(=S)(OCC)Oc1ccc(S(C)=O)cc1 (stereo not drawn)
0.0

# outcome recorded in this test, key = O=C(O)C(F)(F)C(F)(F)C(F)(F)C(F)(F)C(F)(F)C(F)(F)C(F)(F)C(F)(F)C(F)(F)C(F)(F)F
1.0

# outcome recorded in this test, key = Nc1cccc2ccccc12
0.0

# outcome recorded in this test, key = CC(=O)C(Cl)C(=O)N(C)C (stereo not drawn)
0.0

# outcome recorded in this test, key = CC(C)CCCCCCOC(=O)c1ccccc1C(=O)OCCCCCCC(C)C
0.0

# outcome recorded in this test, key = CCOP(=S)(OCC)SCCS(=O)(=O)CC
0.0
